- System: HDQ-P1
- measurement_notes: normalised response (% of control), CellTiter-Glo; higher = more viable cells (100 = DMSO, 0 = benzethonium chloride kill control)
- condition_set: incubation time: 72 h
value_kind: normalised response (%)
One number for each entry, in %.

Give me normalised response for each of these compounds, listed below.
1. CC(=O)O[C@@]12CO[C@@H]1C[C@H](O)[C@@]1(C)C(=O)[C@H](O)C3=C(C)[C@@H](OC(=O)[C@H](O)[C@@H](NC(=O)OC(C)(C)C)c4ccccc4)C[C@@](O)([C@@H](OC(=O)c4ccccc4)[C@H]21)C3(C)C [Docetaxel] (0.1 nM)
2. CC1(C)CNc2cc(NC(=O)c3cccnc3NCc3ccncc3)ccc21 [Motesanib] (1000 nM)
3. Cn1cnc2c(F)c(Nc3ccc(Br)cc3Cl)c(C(=O)NOCCO)cc21 [Selumetinib] (10 nM)
4. O=C1CN2Cc3c(ccc(Cl)c3Cl)N=C2N1 [Anagrelide] (1000 nM)
5. O=NN(CCCl)C(=O)NCCCl [Carmustine] (1000 nM)
6. CC(=O)c1c(C)c2cnc(Nc3ccc(N4CCNCC4)cn3)nc2n(C2CCCC2)c1=O [Palbociclib] (1 nM)
7. Nc1nc2[nH]cnc2c(=S)[nH]1 [Thioguanine] (1000 nM)

// result
1. 96.2
2. 96.6
3. 86.6
4. 95.1
5. 101
6. 90.1
7. 66.1

State the recorded normalised response for every item in the following list.
1. COc1cc(F)c(F)c(Nc2ccc(I)cc2F)c1NS(=O)(=O)C1(C[C@H](O)CO)CC1 [Refametinib] (1 nM)
2. CC1=C2C[C@H]3[C@@H](CC=C4C[C@@H](O)CC[C@@]43C)[C@@H]2CC[C@]12O[C@@H]1C[C@H](C)CN[C@H]1[C@H]2C [Cyclopamine] (10 nM)
3. Nc1nc2[nH]cnc2c(=S)[nH]1 [Thioguanine] (10 nM)
4. C[C@]12CC[C@@H]3c4ccc(OC(=O)N(CCCl)CCCl)cc4CC[C@H]3[C@@H]1CC[C@@H]2O [Estramustine] (10 nM)

// result
[92.8, 105, 94.6, 104]

Provide each entry's normalised response from the list below.
1. Oc1ncnc2[nH]ncc12 [Allopurinol] (10 nM)
2. Oc1ncnc2[nH]ncc12 [Allopurinol] (1 nM)
3. Nc1ncn([C@@H]2O[C@H](CO)[C@@H](O)[C@H]2O)c(=O)n1 [Azacitidine] (10 nM)
4. Cn1cc(C2=Nc3cc(NC(=O)C(N)C4CCCCC4)cc4c3C2=CNNC4=O)cn1 (stereo unspecified) (1000 nM)
5. COc1cc(F)c(F)c(Nc2ccc(I)cc2F)c1NS(=O)(=O)C1(C[C@H](O)CO)CC1 [Refametinib] (1000 nM)

// result
1. 99.5
2. 101
3. 99.5
4. 85.2
5. 54.5
